# test-summary: Toxic score (3) was measured as lethal dose in orally administered mice
# Assay type: toxicity, organism-based
# condition-description: mouse, in vivo, po
test-readout: LD50

Look over these answered cases.
- smiles-code: "Cc1cc(/N=C(\\Nc2nccs2)NC2CCCCC2)c2ccccc2n1"
  test-readout: "LD50"
  value-measured: "> 1000 mg/kg"
- smiles-code: "CCCCC/N=C(\\Nc1nccs1)Nc1cc(C)nc2ccccc12"
  test-readout: "LD50"
  value-measured: "> 1000 mg/kg"
- smiles-code: "Cc1cc(N/C(=N/C(C)(C)C)Nc2cccs2)c2ccccc2n1"
  test-readout: "LD50"
  value-measured: "> 1000 mg/kg"
- smiles-code: "Cc1cc(N/C(=N/C2CCCCC2)Nc2nc3ccccc3s2)c2ccccc2n1"
  test-readout: "LD50"
  value-measured: "> 1000 mg/kg"
- smiles-code: "Cc1ccc2nc(C)cc(N/C(=N/C3CCCCC3)Nc3nccs3)c2c1"
  test-readout: "LD50"
  value-measured: "> 1000 mg/kg"

Query: Value lookup for LD50; key = Cc1cc(N/C(=N/C2CCCCC2)Nc2nc(C)c(C)s2)c2ccccc2n1
Result: > 1000 mg/kg

Query: # get_value(readout='LD50', item= CCOC(=O)c1csc(/N=C(\Nc2cc(C)nc3ccccc23)NC2CCCCC2)n1 )
Result: > 1000 mg/kg

Query: Given Cc1csc(/N=C(\Nc2cc(C)nc3ccccc23)NC(C)(C)C)n1 , state its recorded LD50.
Result: > 1000 mg/kg

###

Entries and their measured LD50 follow.
# test-summary: Lethal dose in mice determined by Litchfield and Wilcoxon methods after peroral administration.
# Assay type: toxicity, organism-based
# condition-description: mouse, in vivo, po

- compound: "Cc1cc(N/C(=N/C2CCCCC2)Nc2ccccn2)c2ccccc2n1"
  LD50: "> 1000 mg/kg"

Query: Consider the compound Cc1ccc2nc(C)cc(N/C(=N/C(C)(C)C)Nc3nccs3)c2c1 and give its measured LD50.
Result: > 1000 mg/kg

Query: # get_value(readout='LD50', item= Cc1cc(N/C(=N/C(C)(C)C)NCCO)c2ccccc2n1 )
Result: 600 mg/kg

Query: Param item = Cc1cc(N/C(=N\C(C)(C)C)Nc2nccs2)c2ccccc2n1 ; retrieve measured LD50.
Result: 200 mg/kg

###

# Test system: Rattus norvegicus
# test-summary: Tested for percent enhancement of carrageenan paw edema in rat, administered orally at a dose of one tenth of oral lethal dose in mice
# Format: functional
Below, each entry is listed alongside its reported Enhancement.
Output spec: scalar in %, unitless text.

Would you please look over these solved cases?
- smiles-code: "CCOC(=O)c1csc(/N=C(\\Nc2cc(C)nc3ccccc23)NC2CCCCC2)n1"
  subject-of-test: "Rattus norvegicus"
  scale-unit: "%"
  Enhancement: 1
- smiles-code: "CCOC(=O)c1cnc(/N=C(\\Nc2cc(C)nc3ccccc23)NC2CCCCC2)s1"
  subject-of-test: "Rattus norvegicus"
  scale-unit: "%"
  Enhancement: 16
- smiles-code: "Cc1cc(N/C(=N/C2CCCCC2)Nc2nc3ccccc3[nH]2)c2ccccc2n1"
  subject-of-test: "Rattus norvegicus"
  scale-unit: "%"
  Enhancement: 13
- smiles-code: "Cc1cc(N/C(=N/C(C)(C)C)Nn2cnnc2)c2ccccc2n1"
  subject-of-test: "Rattus norvegicus"
  scale-unit: "%"
  Enhancement: 9
- smiles-code: "CC(C)(C)/N=C(/Nc1nccs1)Nc1cccc2ccccc12"
  subject-of-test: "Rattus norvegicus"
  scale-unit: "%"
  Enhancement: 19
- smiles-code: "CCOC(=O)c1csc(/N=C(\\Nc2cc(C)nc3ccccc23)NC(C)(C)C)n1"
  subject-of-test: "Rattus norvegicus"
  scale-unit: "%"
  Enhancement: 36

Now for a further compound.
Query: Find the recorded Enhancement belonging to CC(C)(C)/N=C(\Nc1ccc2ccccc2c1)Nc1nccs1 and report it.
Result: 17

###

Quick reference: LD50 of the listed items.
# test-summary: Lethal dose in mice determined by Litchfield and Wilcoxon methods after peroral administration.
# Format: toxicity, organism-based
# condition-description: mouse, in vivo, po
Return type: number; implicit unit mg/kg.

- smiles-code: "CCCCC/N=C(\\Nc1nccs1)Nc1cc(C)nc2ccccc12"
  value-measured: 400

Query: Endpoint output: LD50 of CC(C)Cc1cc(N/C(=N/C(C)(C)C)Nc2nccs2)c2ccccc2n1 . Value?
Result: 600

Query: LD50; subject: CCCc1cc(N/C(=N/C(C)(C)C)Nc2nccs2)c2ccccc2n1
Result: 600

Query: Quick check: LD50 of Cc1cc(N/C(=N\C2CCCC2)Nc2nccs2)c2ccccc2n1 ?
Result: 600

Query: Which measured LD50 value corresponds to Cc1cc(N/C(=N\CC(C)(C)C)Nc2nccs2)c2ccccc2n1 ?
Result: 600

###

# test-summary: Lethal dose in mice determined by Litchfield and Wilcoxon methods after peroral administration.
# Type: toxicity, organism-based
# condition-description: mouse, in vivo, po
test-readout: LD50

- smiles-code: "Cc1cc(N/C(=N/C23C[C@H]4C[C@@H](C2)C[C@@H](C3)C4)Nc2nccs2)c2ccccc2n1"
  LD50: "> 1000 mg/kg"
- smiles-code: "CC(C)(C)/N=C(/Nc1nccs1)Nc1cccc2cnccc12"
  LD50: "> 1000 mg/kg"
- smiles-code: "CC(C)(C)N=C(Nc1nccs1)Nc1nccs1"
  LD50: "> 1000 mg/kg"

Query: LD50; subject: CCCC/N=C(/Nc1nccs1)Nc1cc(C)nc2ccccc12
Result: 800 mg/kg

Query: Need LD50 of CC(C)(C)/N=C(\Nc1cnc2ccccc2c1)Nc1nccs1 , thanks.
Result: > 1000 mg/kg

Query: Data request, read-out LD50, for CCC(C)(C)/N=C(\Nc1ncccn1)Nc1nccs1
Result: > 1000 mg/kg

Query: I would be grateful if you could share the reported LD50 for CC(C)(C)/N=C(\Nc1nccs1)Nc1ccnc2cc(C(F)(F)F)ccc12 .
Result: > 1000 mg/kg

Query: Find the recorded LD50 belonging to CC(C)(C)/N=C(/Nc1nccs1)Nc1cccnc1Cl and report it.
Result: > 1000 mg/kg

Query: Could you tell me which LD50 is on file for CC(C)c1cc(N/C(=N/C2CCCCC2)Nc2nccs2)c2ccccc2n1 ?
Result: > 1000 mg/kg

Query: What LD50 value was documented for this molecule, Cc1cc(N/C(=N/C2(C)CCCC2)Nc2nccs2)c2ccccc2n1 ?
Result: 600 mg/kg

Query: Consider the molecule shown here: Cc1cc(N/C(=N\C2CC2)Nc2nccs2)c2ccccc2n1 What is its recorded LD50?
Result: 600 mg/kg

###

Recorded LD50, one value per entry.
# test-summary: Lethal dose in mice determined by Litchfield and Wilcoxon methods after peroral administration.
# Assay type: toxicity, organism-based
# condition-description: mouse, in vivo, po

Example compounds with recorded LD50:
- compound: "Cc1cc(N/C(=N\\C(C)C(C)(C)C)Nc2nccs2)c2ccccc2n1 (stereo not given)"
  value-measured: "> 1000 mg/kg"
- compound: "Cc1cc(N/C(=N\\C(C)CCCC(C)C)Nc2nccs2)c2ccccc2n1 (stereo not given)"
  value-measured: "> 1000 mg/kg"
- compound: "Cc1cc(N/C(=N/C(C)(C)C)Nc2nc(C)c(C)s2)c2ccccc2n1"
  value-measured: "> 1000 mg/kg"
- compound: "COc1ccc2c(c1)c(CC(=O)O)c(C)n2C(=O)c1ccc(Cl)cc1"
  value-measured: "24.3 mg/kg"
- compound: "CCC(C)(C)/N=C(/Nc1nccs1)Nc1cc(C)nc2ccccc12"
  value-measured: "400 mg/kg"
- compound: "Cc1cc(N/C(=N/c2ccccc2)Nc2nccs2)c2ccccc2n1"
  value-measured: "> 1000 mg/kg"
- compound: "CCC(C)/N=C(/Nc1nccs1)Nc1cc(C)nc2ccccc12 (stereo not given)"
  value-measured: "400 mg/kg"
- compound: "Cc1ccc2cc(N/C(=N\\C(C)(C)C)Nc3nccs3)ccc2n1"
  value-measured: "> 1000 mg/kg"

Query: Fill blank: measured LD50 of the compound Cc1cc(N/C(=N/C2CCCCC2)Nc2nnc(S)s2)c2ccccc2n1 is ____.
Result: > 1000 mg/kg

Query: Quick one: LD50 for Cc1nc2ccccc2c(N/C(=N/C2CCCCC2)Nc2nccs2)c1Cl ?
Result: > 1000 mg/kg

Query: Find the recorded LD50 belonging to Cc1cc(N/C(=N/C2CCCCC2)Nc2c(C)noc2C)c2ccccc2n1 and report it.
Result: > 1000 mg/kg

Query: State the recorded LD50 for this entry: CCC(C)(C)/N=C(\Nc1cccnc1)Nc1nccs1
Result: > 1000 mg/kg

Query: Quick check: LD50 of CCCc1cc(N/C(=N/C2CCCCC2)Nc2nccs2)c2ccccc2n1 ?
Result: > 1000 mg/kg

###

# test-summary: Inhibitory concentration against PG synthetase
# Assay type: functional
test-readout: pIC50
Reminder that pIC50 is minus the log10 of a molar concentration.

Query: # lookup: pIC50 of Cc1cc(/N=C(\Nc2nccs2)NC2CCCCC2)c2ccccc2n1
Result: 5.60

Source listed as ChEMBL document CHEMBL1121519.
